Target: T1, human CD39 (Accession No. NM_001776.6) expressed on cells (human, UniProt P49961 1-510)
T1 construct: whole, on cells; On Jurkat, 293T or SK-MEL28 cells; also called Jurkat/CD39; 293T/CD39
T1 sequence (looked up): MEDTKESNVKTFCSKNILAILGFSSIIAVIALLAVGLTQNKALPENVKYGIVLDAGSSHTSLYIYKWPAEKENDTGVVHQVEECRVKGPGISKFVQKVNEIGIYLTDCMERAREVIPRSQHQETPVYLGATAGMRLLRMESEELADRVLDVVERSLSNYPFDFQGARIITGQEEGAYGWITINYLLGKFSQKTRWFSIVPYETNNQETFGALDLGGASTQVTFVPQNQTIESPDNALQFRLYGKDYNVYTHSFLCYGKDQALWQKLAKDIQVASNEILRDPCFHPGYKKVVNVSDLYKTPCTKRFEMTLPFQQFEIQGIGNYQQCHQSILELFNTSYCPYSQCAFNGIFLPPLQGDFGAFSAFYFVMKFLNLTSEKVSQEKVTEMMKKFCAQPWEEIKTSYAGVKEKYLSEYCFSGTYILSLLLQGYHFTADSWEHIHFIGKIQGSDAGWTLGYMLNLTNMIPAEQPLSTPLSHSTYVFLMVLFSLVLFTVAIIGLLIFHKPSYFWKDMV
Experiment: flow cytometry, 293T/TIM-3 + CD39 cells, KD from MFI
pKd: −log10 of the molar value.
measure: pKd

| binder | measuredNumber |
| --- | --- |
| Tre291_LA (antibody, V domains shown) VH: QVQLKQSGPGLVQPSQSLSITCTVSGFSLTSYGVHWVRQSPGKGLEWLGVIWRRGSTDYNAAFMSRLSITKDTSKSQVFFKMNSLQTDDTAIYYCAGVRGDAMDYWGQGTSVTVSS VL: DIVMTQSHKSMSTSVGDRVSVTCKASQNVGTNVAWYQQKPGQSPKALIYSASYRYSGVPDRFTGSGSGTDFTLTISNVQSEDLAEYFCQQYNSYPLTFGGGTKLEIK | 8.32 |
| mAnE67_sc (antibody, scFv-Fc homodimer, anti-CD39 (mouse variable regions); also called scFv-Fc homodimeric antibody of anti-CD39_scFv antibody mAnE67; not shown: linker and Fc-LALA (human IgG1 Fc with L234A and L235A)) scFv: EVQLVESGGGLVKPGGSRKLSCAASGFTFSDYGMHWVRQAPEKGLEWVAYISSGSSIIYYADTVKGRFTISRDNAKNTLFLQMTGLRSEDTAMYYCARKDYPYAMDYWGQGTSLAVSSGGGGSGGGGSGGGGSGGGGSSIVMTQTPKFMSTSVGDRVSVTCKASQNVGTNVAWYQQKPGQSPKALIYWASNRFTGVPDRFTGSGSGTDFTLTISNVQSEDLADYFCQQYSSSPYTFGSGTKLEIK | 8.26 |
| T86_sc (antibody, scFv-Fc homodimer, anti-CD39 (mouse variable regions); also called scFv-Fc homodimeric antibody of anti-CD39_scFv antibody T86; not shown: linker and Fc-LALA (human IgG1 Fc with L234A and L235A)) scFv: QIQLVQSGPELKKPGETVKISCEASGYTFINYGMNWVKQAPGKGLKWMGWINTYTGEPTYADDFKGRFAFSLETSANTAYLQINNLKNEDTATYFCARKGYYGYPNYYAMDYWGQGTSVTVSSGGGGSGGGGSGGGGSGGGGSDIVMTQSQKFMSTSVGDRVSITCKASQNVGTAVAWYQQKPGQSPKLLIYSASNRYTGVPDRFTGSGSGTDFTLTISNMQSEDLADYFCQQYSSYPITFGTGTKLEIK | 7.77 |
| I67_sc (antibody, scFv-Fc homodimer, anti-CD39 (mouse variable regions); also called scFv-Fc homodimeric antibody of anti-CD39_scFv antibody I67; not shown: linker and Fc-LALA (human IgG1 Fc with L234A and L235A)) scFv: DVQLQESGPSLVQPSQSLSINCTVSGFSLSSYGVHWVRQSPGKGLEWLGVIWRRGSTDYNAAFMSRLSITKDNSKSQVFFKMNRLQADDTATYYCAKGISTATSWFAYWGQGTLVTVSAGGGGSGGGGSGGGGSGGGGSDIVMTQSHKFMSTSVGDRVSVTCKASQNVGTNVAWYQQKPGQSPKALIYSASYRYSGVPDRFTGSGSGTDFTLTISNVQSEDLAEYFCQQYNSYPLTFGAGTKLELK | 8.17 |
| I67_LA (antibody, V domains shown, also called IgG1-LALA antibody of anti-CD39 antibody I67) VH: DVQLQESGPSLVQPSQSLSINCTVSGFSLSSYGVHWVRQSPGKGLEWLGVIWRRGSTDYNAAFMSRLSITKDNSKSQVFFKMNRLQADDTATYYCAKGISTATSWFAYWGQGTLVTVSA VL: DIVMTQSHKFMSTSVGDRVSVTCKASQNVGTNVAWYQQKPGQSPKALIYSASYRYSGVPDRFTGSGSGTDFTLTISNVQSEDLAEYFCQQYNSYPLTFGAGTKLELK | 8.38 |
